procedure.summary: Lipophilicity, logD at pH 7.4 in n-octanol/PBS
Format: physicochemical
test.context: 68Ga-labeled ligand
Starred links: 1 amine or outer side, 2 acyl side, 3 side chain; linkers in the order of their positions; H or OH if unused. Non-standard residues stand in square brackets, D forms with d. Residues, ends and D or L forms follow the SMILES beside them. *: point of attachment. FITC = O=C1OC2(c3ccc(O)cc3Oc3cc(O)ccc32)c2ccc(NC(=S)*)cc21; DOTA = O=C(O)CN1CCN(CC(=O)O)CCN(CC(=O)*)CCN(CC(=O)O)CC1; X2 = O=C(O)CCC(NC(=O)NC(CCCCN*)C(=O)O)C(=O)O; 2Nal = N[CH](Cc1ccc2ccccc2c1)C(=O)O; X1 = O=C(C1CCC(CN[*:1])CC1)[*:2]

compound	Lipophilicity logDpH 7.4 n-octanol/PBS
O=C(O)CCC(NC(=O)NC(CCCCNC(=O)C(Cc1ccc2ccccc2c1)NC(=O)C1CCC(CNC(=O)C(CCCCNC(=O)CN2CCN(CC(=O)O)CCN(CC(=O)O)CCN(CC(=O)O)CC2)NC(=S)Nc2ccc3c(c2)C(=O)OC32c3ccc(O)cc3Oc3cc(O)ccc32)CC1)C(=O)O)C(=O)O (stereo not shown) [PSMA-924]	-2.38
O=C(O)CCC(NC(=O)NC(CCCCNC(=O)C(Cc1ccc2ccccc2c1)NC(=O)C1CCC(CNC(=O)C(CCCCNC(=O)CN2CCN(CC(=O)O)CCN(CC(=O)O)CCN(CC(=O)O)CC2)NC(=O)C(CCC(=O)O)NC(=S)Nc2ccc3c(c2)C(=O)OC32c3ccc(O)cc3Oc3cc(O)ccc32)CC1)C(=O)O)C(=O)O (stereo not shown) [PSMA-925]	-2.05
O=C(O)CCC(NC(=O)NC(CCCCNC(=O)C(Cc1ccc2ccccc2c1)NC(=O)C1CCC(CNC(=O)C(CCCCNC(=O)CN2CCN(CC(=O)O)CCN(CC(=O)O)CCN(CC(=O)O)CC2)NC(=O)C(CCC(=O)O)NC(=O)C(CCC(=O)O)NC(=S)Nc2ccc3c(c2)C(=O)OC32c3ccc(O)cc3Oc3cc(O)ccc32)CC1)C(=O)O)C(=O)O (stereo not shown) [PSMA-926] ({FITC}-EEK(DOTA)[X1][2Nal]-X2; configuration not given here)	-2.13
O=C(O)CCC(NC(=O)NC(CCCCNC(=O)C(Cc1ccc2ccccc2c1)NC(=O)C1CCC(CNC(=O)C(CCCCNC(=S)Nc2ccc3c(c2)C(=O)OC32c3ccc(O)cc3Oc3cc(O)ccc32)NC(=O)CN2CCN(CC(=O)O)CCN(CC(=O)O)CCN(CC(=O)O)CC2)CC1)C(=O)O)C(=O)O (stereo not shown) [PSMA-921]	-2.36
